// data source = PubChem BioAssay AID1159580

# protocol.notes: chemical genetic growth profiling, strain panel (AID 1159580);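 also: tested at 20 µM; growth read once vehicle control cultures reached saturation at 30 °C; lower values mean less growth of the strain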
# applied.conditions: S. cerevisiae deletion strains, growth OD, locus YNL006W, strain LST8
In all, about 5,500 compounds went through this assay and about 2,000 (36%) were called active. About 18% were inconclusive and are not listed. Rule as the data show it: active = normalized growth mostly below about 0.91 (no sharp cut-off); inconclusive = no clear call, values can overlap the other calls; inactive = mostly above about 0.92. Some of the results follow.
Outcome field: choose from active, inactive

# molecule, category
records = [
    ("N=c1ccc2nc3c(Cl)c4c(c(Cl)c3oc-2c1S(=O)(=O)O)Nc1ccc(N)c(S(=O)(=O)O)c1O4", "inactive"),
    ("CCC(C)Cn1c(Sc2ncc([N+](=O)[O-])s2)n[nH]c1=O (stereo not drawn)", "active"),
    ("O=C1Nc2ccccc2/C1=N/N=C\\c1ccccc1Cl", "inactive"),
    ("CN(C(=O)N(C)c1ccc(Cl)cc1C(=O)c1ccccc1Cl)c1ccc(Cl)cc1C(=O)c1ccccc1Cl", "active"),
    ("CC(C)(C)c1csc(NNC(=O)c2ccc(Cl)cc2)n1", "inactive"),
    ("CCn1nc(C)cc1-c1nnc(Sc2ncc([N+](=O)[O-])s2)n1C", "inactive"),
    ("N#CCCCCOc1ccc2c(=O)cc(-c3ccccc3)oc2c1", "inactive"),
    ("O=C1c2ccccc2O[C@@H](c2ccccc2)[C@@H]1NCc1ccccc1", "inactive"),
]

Can you look up the reported call for N#Cc1c(Br)cnn1Cc1cc(C(F)(F)F)cc(C(F)(F)F)c1 for me?
inactive

Can you look up the reported call for Cc1ccc2c(c1)CCCN2CC(=O)N(c1ccccc1)C1CCCCC1 for me?
inactive

Can you look up the reported call for O=C(NCc1cccs1)c1csc(Cc2c(Cl)cccc2Cl)n1 for me?
inactive

Can you look up the reported call for N#CCC(=O)c1cccc(CSc2ccccc2Cl)c1 for me?
active
